Test system: G. duodenalis BRIS/91/HEPU/1279
Test method notes: Primary Giardia screen at 10 µM (live-cell imaging, automated counting)
Type: cell-based, Giardia duodenalis
Measurement setup: 48 h, first singlicate assay
Procedure: Each compound was assessed in singlicate, at a final concentration of 10 μM (0.4 μL of a 5 mM stock; diluted to a final volume of 200 μL in culture medium; 0.2% DMSO). […] Plates were incubated in sealed chambers filled with 3% O2, 5% CO2 in N2 and growth was assessed at 24 and 48 h using live cell imaging and automated counting as previously described. […] The reliability of these assays was assessed by calculating Z’ factors for each plate as previously described.
Param threshold (10%) applies to % Inhibition n=1 48h; output rule met when value >= threshold, rule not met when value < threshold.

Use these answered entries as a reference point.
CCNC(=O)c1c(C)oc2c1CNCC2 [SN00802246] : rule met
CN1C(=O)CC[C@]2(CNC(=O)C3(c4ccccc4)CC3)CCC[C@@H]12 [SN00801306] : rule met
Cc1sc(C(=O)N2CCCC2)c2ncnc(NCc3cccc(Cl)c3)c12 [SN00803183] : rule met
Cc1ccc(-c2nnn(CC(=O)N3CCCCCC3c3cccn3C)n2)cc1 (centres unmarked) [SN00778086] : rule met

In the following, a different compound is considered.
Exam item: Decide: % Inhibition n=1 48h of Cc1ccc(-n2nc(C)c3sc(N4CCCC(C(=O)NCC5CCCO5)C4)nc32)cc1 (centres unmarked) [SN00796250] >= 10%?
Marked response: rule not met
